observedProperty: melting point

Consider the reported melting point for these molecules:
molecule	melting point
CS(=O)(=O)CCCOc1cccc2c1cnn2-c1ccnc(N[C@H]2CC[C@H](C(=O)c3ccccn3)CC2)n1	200 to 201 °C
O=C([C@H]1CC[C@H](Nc2nccc(-n3ccc4c(OCC(O)CC(F)(F)F)cccc43)n2)CC1)N1CCC(O)CC1 (stereo partly shown)	215 to 215.5 °C
CC(=O)N[C@H]1CC[C@H](Nc2nccc(-n3ccc4c(C(C)(C)C#N)cccc43)n2)CC1	238 to 239 °C
CSC[C@H]1CC[C@H](Nc2nccc(-n3ccc4c(OCCCS(C)(=O)=O)cccc43)n2)CC1	158.7 to 159.6 °C
CS(=O)(=O)CCCOc1cccc2c1ccn2-c1ccnc(N[C@H]2CC[C@H](C(=O)N3CCCC(O)C3)CC2)n1 (stereo partly shown)	167.3 to 170.5 °C

// next item, melting point requested
Form field: reported melting point of "CC(C)Oc1cccc2c1cnn2-c1ccnc(N[C@H]2CC[C@H](N(C)S(C)(=O)=O)CC2)n1"
222 to 223 °C

---

Reported melting point is given for each of the following compounds.

Form field: reported melting point of CS(=O)(=O)CCCOc1cccc2c1ccn2-c1ccnc(N[C@H]2CC[C@H](C(N)=O)CC2)n1 [Compound 250]
249 to 250 °C

Also, COc1cccc2c1cnn2-c1ccnc(N[C@H]2CC[C@H](C(=O)N3CCCC3)CC2)n1 [Compound 125] please.
246.5 to 247 °C

Also, N[C@H]1CC[C@H](Nc2nccc(-n3ccc4ccccc43)n2)CC1 [Compound 52] please.
270.1 to 273.3 °C

---

molecular target: Human JNK2α2 (Homo sapiens, UniProt P45984); assay: JNK assay in vitro (phosphorylation of GST-ATF2 with [γ-33P]ATP), JNK2; type: biochemical
Sequence (P45984 whole entry): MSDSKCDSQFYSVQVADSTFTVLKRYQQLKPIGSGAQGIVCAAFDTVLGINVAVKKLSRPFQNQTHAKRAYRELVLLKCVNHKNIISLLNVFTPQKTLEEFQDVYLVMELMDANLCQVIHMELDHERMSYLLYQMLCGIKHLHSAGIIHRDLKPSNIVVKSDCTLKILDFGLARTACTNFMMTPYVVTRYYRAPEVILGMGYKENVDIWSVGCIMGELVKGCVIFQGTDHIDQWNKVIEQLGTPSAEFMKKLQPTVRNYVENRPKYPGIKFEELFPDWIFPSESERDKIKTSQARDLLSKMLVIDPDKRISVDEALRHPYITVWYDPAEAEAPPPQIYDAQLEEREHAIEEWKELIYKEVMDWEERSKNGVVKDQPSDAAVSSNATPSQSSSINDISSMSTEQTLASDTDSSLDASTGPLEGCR
Reported IC50 is given for each of the following compounds.
The reply should be a number in nM, with the unit left off.

Consider the reported IC50 for these compounds:
compound	IC50 / nM
CC(C)C(=O)Nc1cccc2c1ccn2-c1ccnc(N[C@H]2CC[C@H](O)CC2)n1 [Compound 88]	480
N#CCOc1cccc2c1cnn2-c1ccnc(N[C@H]2CC[C@H](O)CC2)n1 [Compound 87]	191
CCC(CO)NC(=O)[C@H]1CC[C@H](Nc2nccc(-n3ncc4ccccc43)n2)CC1 (stereo partly drawn) [Compound 15]	458
O=C(NCC(O)CO)[C@H]1CC[C@H](Nc2nccc(-n3ncc4ccccc43)n2)CC1 (stereo partly drawn) [Compound 16]	592
CC(C)(O)c1cccc2c1ccn2-c1ccnc(N[C@H]2CC[C@H](O)CC2)n1 [Compound 18]	337

Form field: reported IC50 of O=C(NC(CO)CO)[C@H]1CC[C@H](Nc2nccc(-n3ncc4ccccc43)n2)CC1 [Compound 26]
695

---

Reported melting point is given for each of the following molecules.

molecule	melting point
COc1cccc2c(-c3ccnc(N[C@H]4CC[C@H](O)CC4)n3)n[nH]c12	243.3 to 244.9 °C
CN([C@H]1CC[C@H](Nc2nccc(-n3ncc4c(OCCCNS(C)(=O)=O)cccc43)n2)CC1)S(C)(=O)=O	259 to 259.5 °C
CC(C)(O)c1cccc2c1ccn2-c1ccnc(N[C@H]2CC[C@H](NS(C)(=O)=O)CC2)n1	247 to 249.6 °C

// next item, melting point requested
Form field: reported melting point of CC(O)c1cccc2c1ccn2-c1ccnc(N[C@H]2CC[C@H](NS(=O)(=O)N(C)C)CC2)n1 (stereo partly shown)
> 300 °C

---

observedProperty: melting point

Form field: reported melting point of C[C@@H](CO)COc1cccc2c1cnn2-c1ccnc(N[C@H]2CC[C@H](N(C)S(C)(=O)=O)CC2)n1 (stereo in doubt)
222 to 224 °C

Also, "COCc1cccc2c1ccn2-c1ccnc(N[C@H]2CC[C@H](O)CC2)n1" please.
134.8 to 137.3 °C

Also, "CN(c1cccc2c1ccn2-c1ccnc(N[C@H]2CC[C@H](O)CC2)n1)S(C)(=O)=O" please.
235.8 to 236.2 °C

Also, "CS(=O)(=O)N[C@H]1CC[C@H](Nc2nccc(-n3ncc4c(OCCO)cccc43)n2)CC1" please.
268.1 to 269.1 °C

---

observedProperty: melting point

Form field: reported melting point of "COCCOc1cccc2c1ccn2-c1ccnc(N[C@H]2CC[C@H](C(=O)N3CCC(O)CC3)CC2)n1"
134 to 135 °C

Also, CS(=O)(=O)C[C@H](O)COc1cccc2c1cnn2-c1ccnc(N[C@H]2CC[C@H](C(=O)N3CCC(O)CC3)CC2)n1 (stereo in doubt) please.
232 to 233 °C

Also, "CC(C)(O)[C@H]1CC[C@H](Nc2nccc(-n3ccc4c(CC#N)cccc43)n2)CC1" please.
188 to 191.7 °C

Also, C[C@@H]1CC[C@@H](C)N1C(=O)[C@H]1CC[C@H](Nc2nccc(-n3ncc4c(OCCCS(N)(=O)=O)cccc43)n2)CC1 (stereo in doubt) please.
230 to 231 °C

Also, "CS(=O)(=O)CCCOc1cccc2c1cnn2-c1ccnc(N[C@H]2CC[C@H](NC(=O)CN3CCOCC3)CC2)n1" please.
219.2 to 221.1 °C

Also, "CN(C)C1CCN(C(=O)[C@H]2CC[C@H](Nc3nccc(-n4cc(C(N)=O)c5ccccc54)n3)CC2)CC1" please.
219 to 221 °C

Also, "CS(=O)(=O)CCCOc1cccc2c1ccn2-c1ccnc(N[C@H]2CC[C@H](C(=O)N3CC(O)C3)CC2)n1" please.
152 to 153 °C

Also, "CS(=O)(=O)CCCOc1cccc2c1cnn2-c1ccnc(N[C@H]2CC[C@H](C(=O)c3ccccc3)CC2)n1" please.
174.5 to 175.5 °C

Also, CS(=O)(=O)C[C@H](O)COc1cccc2c1cnn2-c1ccnc(N[C@H]2CC[C@H](O)CC2)n1 (stereo in doubt) please.
211 to 212 °C

Also, "Oc1cccc2c1cnn2-c1ccnc(N[C@H]2CC[C@H](O)CC2)n1" please.
> 300 °C

---

tested on: TNFα-induced IL-6 production; test: Rat in vivo TNFα-induced IL-6 production assay; conditions: 1.5 h, oral gavage, dose 10 mg/Kg, 30 min before TNF-α i.p., blood 90 min after challenge
Reported inhibition in vivo at 10 mg/kg is given for each of the following compounds.
The reply should be a number in %, with the unit left off.

Consider the reported inhibition in vivo at 10 mg/kg for these compounds:
compound	unitName	resultNumber
CC(C)(O)[C@H]1CC[C@H](Nc2nccc(-n3ccc4c(OCCCS(C)(=O)=O)cccc43)n2)CC1 [Compound 166]	%	48.5
CC(C)(O)[C@H]1CC[C@H](Nc2nccc(-n3ncc4c(OCCCS(C)(=O)=O)cccc43)n2)CC1 [Compound 157]	%	52.5
N#CCOc1cccc2c1cnn2-c1ccnc(N[C@H]2CC[C@H](O)CC2)n1 [Compound 87]	%	64

// next item, inhibition in vivo at 10 mg/kg requested
Requested read-out inhibition in vivo at 10 mg/kg, target or system TNFα-induced IL-6 production, entry CS(=O)(=O)CCCOc1cccc2c1cnn2-c1ccnc(N[C@H]2CC[C@H](NC(=O)CN3CCOCC3)CC2)n1 [Compound 159]
57.6

---

observedProperty: melting point

Consider the reported melting point for these compounds:
compound	melting point
COC1CCCN(C(=O)[C@H]2CC[C@H](Nc3nccc(-n4ccc5c(OCCCS(C)(=O)=O)cccc54)n3)CC2)C1 (some centres unmarked)	121 to 122 °C
O[C@H]1CC[C@H](Nc2nccc(-n3ncc4c(OCc5ccccn5)cccc43)n2)CC1	202.5 to 203.6 °C
O=C([C@H]1CC[C@H](Nc2nccc(-n3ccc4c(C5(O)CCOCC5)cccc43)n2)CC1)N1CCC(O)CC1	168 to 169 °C
CC(C)COc1cccc2c1cnn2-c1ccnc(N[C@H]2CC[C@H](O)CC2)n1	189.3 to 190.3 °C
CN([C@H]1CC[C@H](Nc2nccc(-n3ccc4c(CNS(C)(=O)=O)cccc43)n2)CC1)S(C)(=O)=O	226.5 to 228 °C
CS(=O)(=O)CCCOc1cccc2c1ccn2-c1ccnc(N[C@H]2CC[C@H](C(=O)N3CCC(S(C)(=O)=O)CC3)CC2)n1	215 to 219 °C
CS(=O)(=O)N[C@H]1CC[C@H](Nc2nccc(-n3ccc4c(OCC5CCN(C(=O)OCc6ccccc6)CC5)cccc43)n2)CC1	179 to 180 °C
CC(C)(O)c1cccc2c1ccn2-c1ccnc(N[C@H]2CC[C@H](NS(=O)(=O)N3CCOCC3)CC2)n1	> 300 °C
CC(C)(CO)COc1cccc2c1cnn2-c1ccnc(N[C@H]2CC[C@H](C(=O)N3CCC(O)CC3)CC2)n1	213 to 214.5 °C
CN([C@H]1CC[C@H](Nc2nccc(-n3ccc4c(CC#N)cccc43)n2)CC1)S(C)(=O)=O	187.8 to 189 °C

Form field: reported melting point of "CN(C)S(=O)(=O)N[C@H]1CC[C@H](Nc2nccc(-n3ncc4c(OCCCO)cccc43)n2)CC1"
248 to 250 °C

Also, "CC(C)(O)[C@H]1CC[C@H](Nc2nccc(-n3ccc4c(S(C)(=O)=O)cccc43)n2)CC1" please.
217.8 to 218.5 °C

Also, "CNC1CCN(C(=O)[C@H]2CC[C@H](Nc3nccc(-n4ccc5c(OCCCS(C)(=O)=O)cccc54)n3)CC2)CC1" please.
187.5 to 189.1 °C

Also, "CN([C@H]1CC[C@H](Nc2nccc(-n3cc(C#N)c4ccccc43)n2)CC1)S(C)(=O)=O" please.
289 to 290 °C

These data points were gathered from patent US8399462B2.
